- study_system: MELK (human)
- experimental_protocol: radiometric filter-binding kinase assay
- setup_conditions: compound 1.0 µM; ATP 50 µM
measurement_type: residual activity (%)
Answer in %, number only, no unit symbol.

Q: Quick one: residual activity of `O=C1c2ccccc2-c2n[nH]c3cccc1c23` ?
Ans: 15

Next:
Q: Quick one: residual activity of `O=S(=O)(NCCNC/C=C/c1ccc(Br)cc1)c1cccc2cnccc12` ?
Ans: 43

Q: Quick one: residual activity of `COc1ccc2c(c1)=NC1=C(C)NCCC=21` ?
Ans: 95

Q: Quick one: residual activity of `CC(C)(N)c1ccc(-c2nc3ccccc3nc2-c2ccccc2)cc1` ?
Ans: 80

Q: Quick one: residual activity of `COC[C@H]1OC(=O)c2coc3c2[C@@]1(C)C1=C(C3=O)[C@@H]2CCC(=O)[C@@]2(C)C[C@H]1OC(C)=O` ?
Ans: 61

Q: Quick one: residual activity of CO[C@H]1CC2CC[C@@H](C)[C@@](O)(O2)C(=O)C(=O)N2CCCC[C@H]2C(=O)OC([C@H](C)C[C@@H]2CC[C@@H](O)[C@H](OC)C2)CC(=O)[C@H](C)/C=C(\C)[C@@H](O)[C@@H](OC)C(=O)[C@H](C)C[C@H](C)/C=C/C=C/C=C/1C (stereo partly specified) ?
Ans: 74

====

- study_system: PHKG1 or PHKG2 (human) (UniProt P15735+Q16816)
- Sequence (P15735 whole entry, looked up): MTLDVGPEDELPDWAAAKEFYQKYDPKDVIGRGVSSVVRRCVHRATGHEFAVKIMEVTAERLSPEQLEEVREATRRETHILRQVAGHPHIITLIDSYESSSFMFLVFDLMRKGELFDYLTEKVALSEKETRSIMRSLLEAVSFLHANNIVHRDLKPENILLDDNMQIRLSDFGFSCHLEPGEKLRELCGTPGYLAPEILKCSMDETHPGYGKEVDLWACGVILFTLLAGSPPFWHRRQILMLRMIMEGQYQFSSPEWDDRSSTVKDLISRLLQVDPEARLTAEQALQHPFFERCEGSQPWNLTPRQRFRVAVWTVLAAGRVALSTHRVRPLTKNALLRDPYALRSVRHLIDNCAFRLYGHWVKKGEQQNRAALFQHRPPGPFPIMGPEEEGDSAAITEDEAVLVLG
- Sequence (Q16816 whole entry, looked up): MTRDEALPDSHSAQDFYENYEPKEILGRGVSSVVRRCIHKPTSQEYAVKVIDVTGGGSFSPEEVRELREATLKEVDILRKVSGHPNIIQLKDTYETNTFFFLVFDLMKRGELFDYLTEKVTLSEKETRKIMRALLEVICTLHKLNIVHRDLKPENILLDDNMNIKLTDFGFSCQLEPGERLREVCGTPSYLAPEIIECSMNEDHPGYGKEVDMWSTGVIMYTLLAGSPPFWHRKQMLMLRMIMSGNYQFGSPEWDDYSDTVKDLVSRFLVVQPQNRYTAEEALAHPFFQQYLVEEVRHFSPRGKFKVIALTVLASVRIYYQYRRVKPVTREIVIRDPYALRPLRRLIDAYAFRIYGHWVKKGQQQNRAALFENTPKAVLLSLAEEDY
- experimental_protocol: radiometric filter-binding kinase assay
- setup_conditions: compound 1.0 µM; ATP 50 µM
Below is a list of entries, each paired with its recorded residual activity value.
Answer in %, number only, no unit symbol.

Q: Quick one: residual activity of `O=S(=O)(NCCNC/C=C/c1ccc(Br)cc1)c1cccc2cnccc12` ?
Ans: 76

Q: Quick one: residual activity of `COC[C@H]1OC(=O)c2coc3c2[C@@]1(C)C1=C(C3=O)[C@@H]2CCC(=O)[C@@]2(C)C[C@H]1OC(C)=O` ?
Ans: 74

Q: Quick one: residual activity of `O=C1c2ccccc2-c2n[nH]c3cccc1c23` ?
Ans: 31

Q: Quick one: residual activity of CO[C@H]1CC2CC[C@@H](C)[C@@](O)(O2)C(=O)C(=O)N2CCCC[C@H]2C(=O)OC([C@H](C)C[C@@H]2CC[C@@H](O)[C@H](OC)C2)CC(=O)[C@H](C)/C=C(\C)[C@@H](O)[C@@H](OC)C(=O)[C@H](C)C[C@H](C)/C=C/C=C/C=C/1C (stereo partly specified) ?
Ans: 95

Next:
Q: Quick one: residual activity of `COc1ccc2c(c1)=NC1=C(C)NCCC=21` ?
Ans: 84

Q: Quick one: residual activity of `CC[C@@H](CO)Nc1nc(NCc2ccccc2)c2ncn(C(C)C)c2n1` ?
Ans: 93

====

Below is a list of entries, each paired with its recorded residual activity value.
- study_system: PIM1 (human)
- experimental_protocol: radiometric filter-binding kinase assay
- setup_conditions: compound 1.0 µM; ATP 20 µM
Answer in %, number only, no unit symbol.

Some solved cases for reference:
Q: Quick one: residual activity of `O=S(=O)(NCCNC/C=C/c1ccc(Br)cc1)c1cccc2cnccc12` ?
Ans: 90

Q: Quick one: residual activity of `CC(C)(N)c1ccc(-c2nc3ccccc3nc2-c2ccccc2)cc1` ?
Ans: 80

Q: Quick one: residual activity of CO[C@H]1CC2CC[C@@H](C)[C@@](O)(O2)C(=O)C(=O)N2CCCC[C@H]2C(=O)OC([C@H](C)C[C@@H]2CC[C@@H](O)[C@H](OC)C2)CC(=O)[C@H](C)/C=C(\C)[C@@H](O)[C@@H](OC)C(=O)[C@H](C)C[C@H](C)/C=C/C=C/C=C/1C (stereo partly specified) ?
Ans: 91

Q: Quick one: residual activity of `O=C1c2ccccc2-c2n[nH]c3cccc1c23` ?
Ans: 39

Q: Quick one: residual activity of `COC[C@H]1OC(=O)c2coc3c2[C@@]1(C)C1=C(C3=O)[C@@H]2CCC(=O)[C@@]2(C)C[C@H]1OC(C)=O` ?
Ans: 87

Attention now shifts to the item below.
Q: Quick one: residual activity of `COc1ccc2c(c1)=NC1=C(C)NCCC=21` ?
Ans: 104

====

- study_system: CHEK2 (human) (UniProt O96017)
- Sequence (O96017 whole entry, looked up): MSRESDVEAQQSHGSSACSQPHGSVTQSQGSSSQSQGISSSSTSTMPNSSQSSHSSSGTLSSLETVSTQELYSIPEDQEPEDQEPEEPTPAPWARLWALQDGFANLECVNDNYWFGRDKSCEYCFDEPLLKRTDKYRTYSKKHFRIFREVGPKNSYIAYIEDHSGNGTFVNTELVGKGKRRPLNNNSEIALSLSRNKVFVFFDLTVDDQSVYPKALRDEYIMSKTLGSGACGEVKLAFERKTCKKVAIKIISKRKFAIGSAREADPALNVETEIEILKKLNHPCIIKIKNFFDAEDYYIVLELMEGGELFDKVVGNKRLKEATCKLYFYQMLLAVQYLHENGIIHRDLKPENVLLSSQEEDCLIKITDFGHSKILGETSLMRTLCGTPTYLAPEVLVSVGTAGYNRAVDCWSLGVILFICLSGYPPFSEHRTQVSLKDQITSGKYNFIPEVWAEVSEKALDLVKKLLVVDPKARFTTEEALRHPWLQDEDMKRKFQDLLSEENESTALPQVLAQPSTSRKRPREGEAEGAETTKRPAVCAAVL
- experimental_protocol: radiometric filter-binding kinase assay
- setup_conditions: compound 1.0 µM; ATP 20 µM
Below is a list of entries, each paired with its recorded residual activity value.

Some solved cases for reference:
Q: For the record `COC[C@H]1OC(=O)c2coc3c2[C@@]1(C)C1=C(C3=O)[C@@H]2CCC(=O)[C@@]2(C)C[C@H]1OC(C)=O` , what value of residual activity is listed for CHEK2 (human) (UniProt O96017)?
Ans: 90%

Q: For the record `O=C1c2ccccc2-c2n[nH]c3cccc1c23` , what value of residual activity is listed for CHEK2 (human) (UniProt O96017)?
Ans: 44%

Q: For the record `COc1ccc2c(c1)=NC1=C(C)NCCC=21` , what value of residual activity is listed for CHEK2 (human) (UniProt O96017)?
Ans: 117%

Attention now shifts to the item below.
Q: For the record CO[C@H]1CC2CC[C@@H](C)[C@@](O)(O2)C(=O)C(=O)N2CCCC[C@H]2C(=O)OC([C@H](C)C[C@@H]2CC[C@@H](O)[C@H](OC)C2)CC(=O)[C@H](C)/C=C(\C)[C@@H](O)[C@@H](OC)C(=O)[C@H](C)C[C@H](C)/C=C/C=C/C=C/1C (some centres undefined) , what value of residual activity is listed for CHEK2 (human) (UniProt O96017)?
Ans: 92%
